Test system: Hepatitis C virus NS3 helicase
Assay: HCV NS3 DNA unwinding blockers – biochemical, Cy5 molecular beacon fluorescence, primary screen (AID 1800);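 note: 0% = DMSO wells and 100% = thioflavine S control wells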
Details: at 10.9 µM
In all, about 290,000 compounds went through this assay and about 1,600 (0.55%) were called active.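 Rule for the calls: active = inhibition above the mean of all tested compounds plus 3 SD, set per campaign (cut at about 35% in these data); inactive = the rest.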 What follows is part of a selection rich in actives, with near analogues and random picks from the rest.
Your reply should match one of these outcome classes. label 1 for active, label 0 for inactive

These recorded examples may help you get a feel for the data.
COc1cccc(N2C(=O)NC(=O)/C(=C\c3cn(C)c4ccccc34)C2=O)c1 ... label 0
CC1(C)Cc2c(C#N)c(N3CCNCC3)nc(-c3ccco3)c2CS1 ... label 0
CN(C)CCN(CC1CCCN(Cc2ccccc2F)C1)C(=O)Cc1ccc(F)c(F)c1 (stereo not drawn) ... label 0

Q. Short answer needed: outcome of this test for Cc1cc(C)cc(NC(=S)NC2CC3CCCC(C2)N3Cc2cccs2)c1 (stereo not drawn) ?
A. label 0

Q. Short answer needed: outcome of this test for "O=C(CN1CCCC1=O)NCCc1ccccc1" ?
A. label 0

Q. Short answer needed: outcome of this test for "CCN(CC)C(=O)Oc1ccc(NC(=O)N2CCOCC2)cc1" ?
A. label 0

Q. Short answer needed: outcome of this test for "COc1ccc(N2C(=O)/C(=C/c3ccco3)C(=O)NC2=S)cc1" ?
A. label 1

Q. Short answer needed: outcome of this test for "CC(C)(C)c1ccc(CN2C(=O)CN=C(c3ccccc3)c3ccccc32)cc1" ?
A. label 0

Q. Short answer needed: outcome of this test for Cc1ccc(C2CN(C)CC2C(=O)c2ccc(F)cc2)cc1 (stereo not drawn) ?
A. label 0

Q. Short answer needed: outcome of this test for "COc1cc2nc(N3CCN(C(=O)[C@@H]4CCCO4)CC3)nc(N)c2cc1OC" ?
A. label 0

Q. Short answer needed: outcome of this test for "COc1ccc(CN2C(=O)NC(=O)/C(=C\c3ccc(OC)c(OC)c3OC)C2=O)cc1" ?
A. label 0

Q. Short answer needed: outcome of this test for "CN(C)CCCN=Cc1c(O)n(Cc2ccco2)c(=O)[nH]c1=O" ?
A. label 0

Q. Short answer needed: outcome of this test for "O=C1CC(=O)N(Cc2ccccc2)C(=O)N1CCCCCCN1C(=O)CC(=O)N(Cc2ccccc2)C1=O" ?
A. label 1
